System: ACHN renal
Assay: NCI tumour cell line growth inhibition, 48 h
# key: entry, value: TGI

{"Compound": "CC(=O)OC[C@]12CC[C@@H](C(=O)CBr)[C@@H]1[C@H]1CC[C@@H]3[C@@]4(C)CCCNC(C)(C)[C@@H]4CC[C@@]3(C)[C@]1(C)CC2", "TGI": "4.28 µM"}
{"Compound": "N#C/C(c1nc2ccccc2[nH]1)=c1\\s/c(=C/c2ccc(Cl)cc2)c(=O)n1-c1ccccc1", "TGI": "> 100 µM"}
{"Compound": "C=CCC1(O)c2ccccc2C(=O)c2c(NCCN(CC(=O)OCC)CC(=O)OCC)cccc21 (stereo not given)", "TGI": "> 100 µM"}
{"Compound": "COc1cc2ccccc2oc1=O", "TGI": "> 100 µM"}
{"Compound": "OCC1C(/C=C/c2ccoc2)ON2CCCC12 (stereo not given)", "TGI": "> 100 µM"}
{"Compound": "CC(C)OCC1CC(CC(=O)Nc2nncs2)C(=O)O1 (stereo not given)", "TGI": "> 100 µM"}
{"Compound": "CC1(N)CCN(c2cccnc2NC(=O)c2nc(-c3ncccc3C(F)(F)F)cnc2N)CC1", "TGI": "> 100 µM"}
{"Compound": "CN1c2ccccc2N(C(=O)c2ccc(Cl)cc2)C(CC(=O)O)c2cccn21 (stereo not given)", "TGI": "> 100 µM"}
{"Compound": "COc1ccc2c(c1)[n+]([O-])c(-c1ccc(OC)c(OC)c1)c(N)[n+]2[O-]", "TGI": "> 100 µM"}
{"Compound": "CC(=O)C(=Cc1ccc(C=C(C(C)=O)C(C)=O)cc1)C(C)=O", "TGI": "3.59 µM"}
